Target: human cannabinoid receptor 1 (huCB1), full length, expressed on cells (human, UniProt P21554 1-472)
Sequence (P21554 whole entry): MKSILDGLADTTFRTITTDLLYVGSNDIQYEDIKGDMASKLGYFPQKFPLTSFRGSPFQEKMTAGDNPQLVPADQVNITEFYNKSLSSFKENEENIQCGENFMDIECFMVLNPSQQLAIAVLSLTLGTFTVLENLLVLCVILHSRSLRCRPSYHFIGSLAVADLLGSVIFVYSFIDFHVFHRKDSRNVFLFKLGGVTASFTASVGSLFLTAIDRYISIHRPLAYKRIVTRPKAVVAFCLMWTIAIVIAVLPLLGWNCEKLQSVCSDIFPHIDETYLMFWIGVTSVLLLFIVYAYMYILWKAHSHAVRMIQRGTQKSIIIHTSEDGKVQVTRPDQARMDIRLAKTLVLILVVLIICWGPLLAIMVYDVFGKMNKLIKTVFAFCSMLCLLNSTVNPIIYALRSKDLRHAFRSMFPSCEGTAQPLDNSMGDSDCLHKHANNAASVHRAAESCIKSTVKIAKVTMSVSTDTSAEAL
Assay: cell-based or functional assay
Each entry below lists one item and its recorded n = 2 IC50, -fold vs Rimo value.
Expressed in fold vs Rimonabant, but write only the number.

Answered examples (2):
{"columns": ["Binder", "Units Text", "n = 2 IC50, -fold vs Rimo"],
 "data": [
  ["LIBC523670-1 (antibody, V domains shown) VH: QVQLQESGPGLVKPSQTLSLTCTVSGGSIRRGGDYWAWIRQHPGKGLEWIGHVYQTGQTAYNPNLESRATISVNTYKNQFSLKLSSVTAADTAVYYCARNYDVLSGYSYYYYGMDVWGQGTTVTVSS VL: DIVMTQSPLSLPVTPGEPASISCRSSQSLLTSYGANYLDWYLQKPGQSPQLLIYQGSNRASGVPDRFSGSGSGTDFTLKISRVEAEDVGVYYCMQALQIPRTFGQGTKVEIKR", "fold vs Rimonabant", 1.97],
  ["LIBC523813-1 (antibody, V domains shown) VH: QVQLQESGPGLVKPSQTLSLTCTVSGGSIRRGGDYWSWIRQHPGKGLEWIGHVYYTGQTAYNPKFKDRATISVKTYKNQFSLKLSSVTAADTAVYYCARDYDILTGYSYYYYGMDVWGQGTTVTVSS VL: DIVMTQSPLSLPVTPGEPASISCRSSQSLLSSSGANYVDWYLQKPGQSPQLLIYLGSNRASGVPDRFSGSGSGTDFTLKISRVEAEDVGVYYCMQARGIPRTFGQGTKVEIKR", "fold vs Rimonabant", 1.64]
]}

Now look at this entry.
Quickly give me recorded n = 2 IC50, -fold vs Rimo for LIBC523661-1 (antibody, V domains shown, Expressed as IgG1 SEFL2 mAb) VH: QVQLQESGPGLVKPSQTLSLTCTVSGGSIRRGGDYWSWIRQHPGKGLEWIGHIYYEGSTKYNPSFKGRATISVNTYKNQFSLKLSSVTAADTAVYYCARDYDPVTGHSYYYYGMDVWGQGTTVTVSS VL: DIVMTQSPLSLPVTPGEPASISCRSSQSLLTSSGYNYVDWYLQKPGQSPQLLIYQGSNRASGVPDRFSGSGSGTDFTLKISRVEAEDVGVYYCRQARAIPRTFGQGTKVEIKR 0.75
